Assay target: T1, human inducible phospho-fructokinase bisphosphatase isoform 3, PFKFB3 (human, UniProt Q16875 1-520, RED-NHS label)
T1 construct: human PFKFB3 (inducible bifunctional enzyme), GenBank AF056320.1; Plasmid from Prof; Yong-Hwan Lee; also called 6-Phosphofructo-2-kinase/fructose-2,6-biphosphatase 3; human inducible bifunctional enzyme; not shown: His tag, N-terminal, cleaved
T1 sequence (Q16875 whole entry, canonical isoform): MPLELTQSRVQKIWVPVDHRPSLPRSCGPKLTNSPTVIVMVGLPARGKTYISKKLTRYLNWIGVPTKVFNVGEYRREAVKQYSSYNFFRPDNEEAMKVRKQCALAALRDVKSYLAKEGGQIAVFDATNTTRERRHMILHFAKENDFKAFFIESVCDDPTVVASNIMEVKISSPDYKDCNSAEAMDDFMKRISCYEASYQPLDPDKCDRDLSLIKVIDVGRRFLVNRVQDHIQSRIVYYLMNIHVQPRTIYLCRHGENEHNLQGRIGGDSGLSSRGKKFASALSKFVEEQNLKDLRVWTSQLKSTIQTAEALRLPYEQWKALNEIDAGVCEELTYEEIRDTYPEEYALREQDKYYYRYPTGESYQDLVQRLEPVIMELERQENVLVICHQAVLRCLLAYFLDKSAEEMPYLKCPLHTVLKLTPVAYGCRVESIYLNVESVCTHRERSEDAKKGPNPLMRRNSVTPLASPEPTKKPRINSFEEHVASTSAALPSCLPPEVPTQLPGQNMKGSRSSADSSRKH
Test details: MST; Nanotemper microscale thermophoresis; compound in MST buffer mixed 1:1 with 100 nM RED-NHS labeled recombinant PFKFB3, incubated 20 min at room temperature
Particulars: both partners purified
Ends that are not written are not given here.
pKd values, listed per item
Quick note: pKd values are minus log10 of concentrations in mol/L.

[[record]]
binder = "YSGFLT (printed as YSGFLT; picked by virtual screening of ZINC libraries; also called compound 4; source: synthetic peptide) [peptide 4 (YSGFLT)]"
endpoint_name = "pKd"
measured_result = 4.74


Attention now shifts to the item below.
pKd measured on SFLLR-NH2 (printed as SFLLR-CONH2; picked by virtual screening of ZINC libraries; also called compound 5; source: synthetic peptide) [peptide 5 (SFLLR-CONH2)] = 4.35
